Molecular target: T1, human GLP-1 receptor (human, UniProt P43220 24-463)
T1 construct: whole, on cells; Used as purified membranes of the transfected hamster cells, not whole cells; also called hGLP-1
Test: SPA, displacement of 125I-GLP-1(7-36)NH2, 0.005% HSA
*1 amine or outer side, *2 acyl side, *3 side chain or, on linkers, in order; H or OH if unused. Where no end group is shown, it is not given here. Side-chain parts run from the residue outwards. [ ]: non-standard residue; d: D form. The star is where a group is joined. Decanoyl(10-(4-HOOC-PhO)) = O=C(O)c1ccc(OCCCCCCCCCC(=O)*)cc1; C16 diacid = O=C(O)CCCCCCCCCCCCCCC(=O)*; γGlu = O=C(O)[C@H](CCC(=O)[*:2])N[*:1]; 13‑carboxytridecanoyl = C14 diacid; AEEA = NCCOCCOCC(=O)O; Aib = CC(C)(N)C(=O)O
IC50 listing for selected binders.

Reference set, count: 3
binder	IC50
HAEGTFTSDVSK([AEEA-AEEA-γGlu-13‑carboxytridecanoyl])YLEEQAAHK([AEEA-AEEA-γGlu-13‑carboxytridecanoyl])FIAHLVQGRG [GLP-1 derivative of Example 119: [Lys18,Glu22,His26,Lys27,His31,Gln34]-GLP-1-(7-37)-peptide]	< 1000 nM
H[Aib]EGTFTSDVSK([AEEA-AEEA-γGlu-γGlu-C16 diacid])YLEEQAVREFIAK([AEEA-AEEA-γGlu-γGlu-C16 diacid])LVRGRG [GLP-1 derivative of Example 134: [Aib8,Lys18,Glu22,Val25,Arg26,Lys31,Arg34]-GLP-1-(7-37)-peptide]	< 1000 nM
HAEGTFTSDVSK([AEEA-AEEA-γGlu-13‑carboxytridecanoyl])YLEEQAVRK([AEEA-AEEA-γGlu-13‑carboxytridecanoyl])FIAWLVQGRG [GLP-1 derivative of Example 48: [Lys18,Glu22,Val25,Arg26,Lys27,Gln34]-GLP-1-(7-37)-peptide]	< 1000 nM

Short answer for HAEGTFTSDVSK([γGlu-AEEA-AEEA-Decanoyl(10-(4-HOOC-PhO))])YLEEQAARK([γGlu-AEEA-AEEA-Decanoyl(10-(4-HOOC-PhO))])FIAHLVG [GLP-1 derivative of Example 49: [Lys18,Glu22,Arg26,Lys27,His31,Gly34]-GLP-1-(7-34)-peptide] : IC50 was < 1000 nM

Short answer for HAEGTFTSDVSK([AEEA-AEEA-γGlu-2‑(2-(trifluoromethyl)phenyl)acetyl])YLEK([AEEA-AEEA-γGlu-2‑(2-(trifluoromethyl)phenyl)acetyl])QAAREFIAWLVQGRG [GLP-1 derivative of Example 125: [Lys18,Lys22,Arg26,Gln34]-GLP-1-(7-37)-peptide] : IC50 was < 1000 nM

Short answer for HAEGTFTSDVSK([AEEA-AEEA-γGlu-13‑carboxytridecanoyl])YLEEQAVREFIK([AEEA-AEEA-γGlu-13‑carboxytridecanoyl])HLVG [GLP-1 derivative of Example 52: [Lys18,Glu22,Val25,Arg26,Lys30,His31,Gly34]-GLP-1-(7-34)-peptide] : IC50 was < 1000 nM

Short answer for H[Aib]EGTFTSDVSK([AEEA-AEEA-γGlu-C16 diacid])YLEEQAAK([AEEA-AEEA-γGlu-C16 diacid])EFIAWLVQGRG [GLP-1 derivative of Example 143: [Aib8,Lys18,Glu22,Gln34]-GLP-1-(7-37)-peptide] : IC50 was < 1000 nM

Short answer for HAEGTFTSDVSK([AEEA-AEEA-γGlu-13‑carboxytridecanoyl])YLEEQAVREFIAK([AEEA-AEEA-γGlu-13‑carboxytridecanoyl])LVRGRG [GLP-1 derivative of Example 43: [Lys18,Glu22,Val25,Arg26,Lys31,Arg34]-GLP-1-(7-37)-peptide] : IC50 was < 1000 nM
